These data points were gathered from patent US8816119B2.

measured target: W741L AR (Homo sapiens, UniProt P10275, W742L)
Construct: expressed in transfected cells; host or cells: COS-1
Sequence (P10275 whole entry W742L): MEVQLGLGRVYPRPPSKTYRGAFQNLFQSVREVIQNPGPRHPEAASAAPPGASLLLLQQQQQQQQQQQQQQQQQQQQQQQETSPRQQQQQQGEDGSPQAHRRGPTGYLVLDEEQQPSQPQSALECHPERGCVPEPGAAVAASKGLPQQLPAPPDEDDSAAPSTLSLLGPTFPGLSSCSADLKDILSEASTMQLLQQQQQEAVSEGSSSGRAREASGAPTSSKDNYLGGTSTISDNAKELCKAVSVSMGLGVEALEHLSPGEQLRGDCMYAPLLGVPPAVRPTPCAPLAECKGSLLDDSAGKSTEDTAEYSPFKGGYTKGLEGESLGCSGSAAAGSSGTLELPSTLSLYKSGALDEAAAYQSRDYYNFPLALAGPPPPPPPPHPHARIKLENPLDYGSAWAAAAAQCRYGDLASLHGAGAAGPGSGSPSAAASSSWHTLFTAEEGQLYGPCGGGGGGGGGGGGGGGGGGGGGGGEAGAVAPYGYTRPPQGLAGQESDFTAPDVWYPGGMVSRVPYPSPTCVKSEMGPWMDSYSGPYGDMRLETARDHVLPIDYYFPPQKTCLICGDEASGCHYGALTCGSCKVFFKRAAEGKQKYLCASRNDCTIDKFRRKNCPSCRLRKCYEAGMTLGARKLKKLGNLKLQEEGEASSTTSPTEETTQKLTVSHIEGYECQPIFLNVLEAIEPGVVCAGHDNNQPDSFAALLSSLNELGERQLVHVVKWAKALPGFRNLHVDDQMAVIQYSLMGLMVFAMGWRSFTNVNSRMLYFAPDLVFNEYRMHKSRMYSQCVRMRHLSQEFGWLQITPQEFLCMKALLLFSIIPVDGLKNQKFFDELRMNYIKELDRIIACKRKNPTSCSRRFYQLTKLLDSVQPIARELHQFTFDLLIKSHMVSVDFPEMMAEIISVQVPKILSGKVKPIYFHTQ
protocol details: Agonism in W741L mutant AR, AR transactivation assay in COS-1 cells, test compounds alone
Format: cell-based
applied conditions: 10 microM, compound alone
Rule: Relative LUC activity (%) in W741L AR in relation to BIC (100%) under 4% gives false, otherwise true.

INSERT INTO assay_data (compound, class_label) VALUES
  ('N#Cc1ccc(NC(=O)C(O)(CS(=O)(=O)c2ccc(F)cc2)c2ccc(C(F)(F)F)cc2)cc1C(F)(F)F (stereo not shown) [Example 21]', 'false'),
  ('N#Cc1ccc(NC(=O)C(O)(CS(=O)(=O)c2ccc(F)cc2)c2ccc(C(F)(F)F)cc2)cc1Cl (stereo not shown) [Example 4]', 'true'),
  ('N#Cc1ccc(NC(=O)C(O)(CS(=O)(=O)c2ccc(Cl)cc2)c2ccc(Cl)cc2)cc1Cl (stereo not shown) [Example 18]', 'true'),
  ('N#Cc1ccc(NC(=O)C(O)(CS(=O)(=O)Cc2ccc(Cl)cc2)c2ccc(Cl)cc2)cc1Cl (stereo not shown) [Example 27]', 'true'),
  ('CCS(=O)(=O)CC(O)(C(=O)Nc1ccc(C#N)c(C(F)(F)F)c1)c1ccc(F)cc1 (stereo not shown) [Example 1]', 'true'),
  ('COc1ccc(C(O)(CS(=O)(=O)Cc2ccc(F)cc2)C(=O)Nc2ccc(C#N)c(Cl)c2)cc1F (stereo not shown) [Example 32]', 'false');

###

measured target: T877A AR (Homo sapiens, UniProt P10275, T878A)
Construct: expressed in transfected cells; host or cells: COS-1
Sequence (P10275 whole entry T878A): as the sequence (P10275 whole entry W742L) above, with L742W, T878A counted along it
protocol details: Agonism in T877A mutant AR, AR transactivation assay in COS-1 cells, test compounds alone
Type: cell-based
applied conditions: 10 microM, compound alone
# Relative LUC activity (%) in T877A AR in relation to testosterone (100%) per entry
measure name: Relative LUC activity (%) in T877A AR in relation to testosterone (100%)

INSERT INTO results (compound, measured_target, unit, measurement) VALUES
  ('N#Cc1ccc(S(=O)(=O)CC(O)(C(=O)Nc2ccc([N+](=O)[O-])c(Cl)c2)c2ccc(C(F)(F)F)cc2)cc1F (stereo not shown)', 'T877A AR (Homo sapiens, UniProt P10275, T878A)', '%', 2),
  ('N#Cc1ccc(NC(=O)C(O)(CS(=O)(=O)c2ccc(Cl)cc2)c2ccc(Cl)cc2)cc1Cl (stereo not shown)', 'T877A AR (Homo sapiens, UniProt P10275, T878A)', '%', 6),
  ('COc1ccc(C(O)(CS(=O)(=O)Cc2ccc(F)cc2)C(=O)Nc2ccc(C#N)c(Cl)c2)cc1F (stereo not shown)', 'T877A AR (Homo sapiens, UniProt P10275, T878A)', '%', 2),
  ('CCS(=O)(=O)CC(O)(C(=O)Nc1ccc(C#N)c(C(F)(F)F)c1)c1ccc(F)cc1 (stereo not shown)', 'T877A AR (Homo sapiens, UniProt P10275, T878A)', '%', 14),
  ('CCS(=O)(=O)CC(O)(C(=O)Nc1ccc(C#N)c(Cl)c1)c1ccc(F)c(F)c1 (stereo not shown)', 'T877A AR (Homo sapiens, UniProt P10275, T878A)', '%', 9),
  ('N#Cc1ccc(NC(=O)C(O)(CS(=O)(=O)Cc2ccc(Cl)cc2)c2ccc(Cl)cc2)cc1Cl (stereo not shown)', 'T877A AR (Homo sapiens, UniProt P10275, T878A)', '%', 1),
  ('N#Cc1ccc(NC(=O)C(O)(CS(=O)(=O)c2ccc(F)c(F)c2)c2ccc(C(F)(F)F)cc2)cc1Cl (stereo not shown)', 'T877A AR (Homo sapiens, UniProt P10275, T878A)', '%', 1);

###

measured target: W741L AR (Homo sapiens, UniProt P10275, W742L)
Construct: expressed in transfected cells; host or cells: COS-1
protocol details: Agonism in W741L mutant AR, AR transactivation assay in COS-1 cells, test compounds alone
Assay type: cell-based
applied conditions: 10 microM, compound alone
measure name: Relative LUC activity (%) in W741L AR in relation to BIC (100%)

INSERT INTO results (compound, measurement) VALUES
  ('N#Cc1ccc(NC(=O)C(O)(CS(=O)(=O)Cc2ccc(F)cc2)c2cccc(C(F)(F)F)c2)cc1Cl (centres unmarked) [Example 40]', 2),
  ('CCS(=O)(=O)CC(O)(C(=O)Nc1ccc(C#N)c(Cl)c1)c1ccc(F)c(F)c1 (centres unmarked) [Example 5]', 18),
  ('CCS(=O)(=O)CC(O)(C(=O)Nc1ccc(C#N)c(Cl)c1)c1ccc(OC)c(F)c1 (centres unmarked) [Example 25]', 9),
  ('N#Cc1ccc(NC(=O)C(O)(CS(=O)(=O)c2ccc(F)c(F)c2)c2ccc(C(F)(F)F)cc2)cc1Cl (centres unmarked) [Example 10]', 3),
  ('N#Cc1ccc(S(=O)(=O)CC(O)(C(=O)Nc2ccc([N+](=O)[O-])c(Cl)c2)c2ccc(C(F)(F)F)cc2)cc1F (centres unmarked) [Example 19]', 9);

###

measured target: T877A AR (Homo sapiens, UniProt P10275, T878A)
Construct: expressed in transfected cells; host or cells: COS-1
protocol details: Agonism in T877A mutant AR, AR transactivation assay in COS-1 cells, test compounds alone
Format: cell-based
applied conditions: 10 microM, compound alone
measure name: Relative LUC activity (%) in T877A AR in relation to testosterone (100%)

INSERT INTO assay_data (compound, measurement) VALUES
  ('N#Cc1ccc(NC(=O)C(O)(CS(=O)(=O)c2ccc(F)cc2)c2ccc(C(F)(F)F)cc2)cc1Cl (centres unmarked) [Example 4]', 1),
  ('N#Cc1ccc(NC(=O)C(O)(CS(=O)(=O)Cc2ccc(F)cc2)c2cccc(C(F)(F)F)c2)cc1Cl (centres unmarked) [Example 40]', 1),
  ('N#Cc1ccc(NC(=O)C(O)(CS(=O)(=O)Cc2ccco2)c2ccc(C(F)(F)F)cc2)cc1C(F)(F)F (centres unmarked) [Example 3]', 3),
  ('N#Cc1ccc(NC(=O)C(O)(CS(=O)(=O)c2ccc(F)cc2)c2ccc(C(F)(F)F)cc2)cc1C(F)(F)F (centres unmarked) [Example 21]', 4),
  ('CCS(=O)(=O)CC(O)(C(=O)Nc1ccc(C#N)c(Cl)c1)c1ccc(OC)c(F)c1 (centres unmarked) [Example 25]', 9);
